- assay-remarks: Phase 1/2 clinical study: pharmacokinetics in cancer patients
- Assay type: in vivo, human
- run-parameters: human, plasma, oral; 250 mg; 24 hr (not measured, inferred based on predose); read-out: Mean patient plasma CONC (SD)
metric: concentration at 24 h (ng/mL)
Write down the numeric answer in ng/mL and omit the unit.

[ask] # lookup: concentration at 24 h of `COc1ccc(F)cc1C(=O)NCc1ccc(-c2nn([C@@H](C)C(F)(F)F)c(N)c2C(N)=O)cc1`
[reply] 3160

----------
- assay-remarks: Phase 1/2 clinical study: pharmacokinetics in cancer patients
- Type: in vivo, human
- run-parameters: human, plasma, oral; 250 mg QD; steady state (Cycle 1 Day 8); N = 21; % CV 50.6%; read-out: T1/2 Geo mean (% CV) (converted)
metric: half-life (h)
Write down the numeric answer in h and omit the unit.

[ask] # lookup: half-life of `COc1ccc(F)cc1C(=O)NCc1ccc(-c2nn([C@@H](C)C(F)(F)F)c(N)c2C(N)=O)cc1`
[reply] 17.4

----------
- assay-remarks: Phase 1/2 clinical study: pharmacokinetics in cancer patients
- Type: in vivo, human
- run-parameters: human, plasma, oral; 100 mg; 1 hr; read-out: Mean patient plasma CONC (SD)
metric: concentration at 1 h (ng/mL)
Write down the numeric answer in ng/mL and omit the unit.

[ask] # lookup: concentration at 1 h of `COc1ccc(F)cc1C(=O)NCc1ccc(-c2nn([C@@H](C)C(F)(F)F)c(N)c2C(N)=O)cc1`
[reply] 2170

----------
- assay-remarks: Phase 1/2 clinical study: pharmacokinetics in cancer patients
- Type: in vivo, human
- run-parameters: human, plasma, oral; 150 mg; 4 hr; read-out: Mean patient plasma CONC (SD)
metric: concentration at 4 h (ng/mL)
Write down the numeric answer in ng/mL and omit the unit.

[ask] # lookup: concentration at 4 h of COc1ccc(F)cc1C(=O)NCc1ccc(-c2nn([C@@H](C)C(F)(F)F)c(N)c2C(N)=O)cc1 [BTK-I]
[reply] 3660

----------
- assay-remarks: Phase 1/2 clinical study: pharmacokinetics in cancer patients
- Format: in vivo, human
- run-parameters: human, plasma, oral, 200 mg, 200 mg QD; steady state (Cycle 1 Day 8); N=99; read-out: AUC0-24 Geo mean (% CV)
metric: AUC(0-t) (ng·h/mL)
Write down the numeric answer in ng·h/mL and omit the unit.

[ask] # lookup: AUC(0-t) of COc1ccc(F)cc1C(=O)NCc1ccc(-c2nn([C@@H](C)C(F)(F)F)c(N)c2C(N)=O)cc1 [BTK-I]
[reply] 91000

----------
- assay-remarks: Phase 1/2 clinical study: pharmacokinetics in cancer patients
- Format: in vivo, human
- run-parameters: human, plasma, oral; 150 mg; 0 hr; read-out: Mean patient plasma CONC (SD)
metric: concentration at 0 h
State the value, then name its unit.

[ask] # lookup: concentration at 0 h of `COc1ccc(F)cc1C(=O)NCc1ccc(-c2nn([C@@H](C)C(F)(F)F)c(N)c2C(N)=O)cc1`
[reply] 1800 ng/mL

----------
- assay-remarks: Phase 1/2 clinical study: pharmacokinetics in cancer patients
- Assay type: in vivo, human
- run-parameters: human, plasma, oral; 25 mg QD; steady state (Cycle 1 Day 8); N = 4; % CV 60.1%; read-out: T1/2 Geo mean (% CV) (converted)
metric: half-life (h)
Write down the numeric answer in h and omit the unit.

[ask] # lookup: half-life of COc1ccc(F)cc1C(=O)NCc1ccc(-c2nn([C@@H](C)C(F)(F)F)c(N)c2C(N)=O)cc1 [BTK-I]
[reply] 18.2

----------
- assay-remarks: Phase 1/2 clinical study: pharmacokinetics in cancer patients
- Format: in vivo, human
- run-parameters: human, plasma, oral; 50 mg; 0 hr; read-out: Mean patient plasma CONC (SD)
metric: concentration at 0 h (ng/mL)
Write down the numeric answer in ng/mL and omit the unit.

[ask] # lookup: concentration at 0 h of `COc1ccc(F)cc1C(=O)NCc1ccc(-c2nn([C@@H](C)C(F)(F)F)c(N)c2C(N)=O)cc1`
[reply] 571

----------
- assay-remarks: Phase 1/2 clinical study: pharmacokinetics in cancer patients
- Assay type: in vivo, human
- run-parameters: human, plasma, oral; 300 mg; 4 hr; read-out: Mean patient plasma CONC (SD)
metric: concentration at 4 h (ng/mL)
Write down the numeric answer in ng/mL and omit the unit.

[ask] # lookup: concentration at 4 h of COc1ccc(F)cc1C(=O)NCc1ccc(-c2nn([C@@H](C)C(F)(F)F)c(N)c2C(N)=O)cc1 [BTK-I]
[reply] 8420

----------
- assay-remarks: Phase 1/2 clinical study: pharmacokinetics in cancer patients
- Type: in vivo, human
- run-parameters: human, plasma, oral, 250 mg, 250 mg QD; steady state (Cycle 1 Day 8); N=25; read-out: AUC0-8 Geo mean (% CV)
metric: AUC(0-t) (ng·h/mL)
Write down the numeric answer in ng·h/mL and omit the unit.

[ask] # lookup: AUC(0-t) of `COc1ccc(F)cc1C(=O)NCc1ccc(-c2nn([C@@H](C)C(F)(F)F)c(N)c2C(N)=O)cc1`
[reply] 49700

----------
- assay-remarks: Phase 1/2 clinical study: pharmacokinetics in cancer patients
- Format: in vivo, human
- run-parameters: human, plasma, oral; 50 mg QD; steady state (Cycle 1 Day 8); N=6; read-out: Tmax Median (min, max)
metric: Tmax (h)
Write down the numeric answer in h and omit the unit.

[ask] # lookup: Tmax of `COc1ccc(F)cc1C(=O)NCc1ccc(-c2nn([C@@H](C)C(F)(F)F)c(N)c2C(N)=O)cc1`
[reply] 1.5

----------
- assay-remarks: Phase 1/2 clinical study: pharmacokinetics in cancer patients
- Format: in vivo, human
- run-parameters: human, plasma, oral; 250 mg; 2 hr; read-out: Mean patient plasma CONC (SD)
metric: concentration at 2 h (ng/mL)
Write down the numeric answer in ng/mL and omit the unit.

[ask] # lookup: concentration at 2 h of `COc1ccc(F)cc1C(=O)NCc1ccc(-c2nn([C@@H](C)C(F)(F)F)c(N)c2C(N)=O)cc1`
[reply] 7870

----------
- assay-remarks: Phase 1/2 clinical study: pharmacokinetics in cancer patients
- Format: in vivo, human
- run-parameters: human, plasma, oral; 50 mg QD; steady state (Cycle 1 Day 8); N=6; read-out: Cmax Geo mean (% CV)
metric: Cmax (ng/mL)
Write down the numeric answer in ng/mL and omit the unit.

[ask] # lookup: Cmax of COc1ccc(F)cc1C(=O)NCc1ccc(-c2nn([C@@H](C)C(F)(F)F)c(N)c2C(N)=O)cc1 [BTK-I]
[reply] 1420

----------
- assay-remarks: Phase 1/2 clinical study: pharmacokinetics in cancer patients
- Type: in vivo, human
- run-parameters: human, plasma, oral; 200 mg; 0 hr; read-out: Mean patient plasma CONC (SD)
metric: concentration at 0 h (ng/mL)
Write down the numeric answer in ng/mL and omit the unit.

[ask] # lookup: concentration at 0 h of COc1ccc(F)cc1C(=O)NCc1ccc(-c2nn([C@@H](C)C(F)(F)F)c(N)c2C(N)=O)cc1 [BTK-I]
[reply] 2770

----------
- assay-remarks: Phase 1/2 clinical study: pharmacokinetics in cancer patients
- Assay type: in vivo, human
- run-parameters: human, plasma, oral; 200 mg; 4 hr; read-out: Mean patient plasma CONC (SD)
metric: concentration at 4 h (ng/mL)
Write down the numeric answer in ng/mL and omit the unit.

[ask] # lookup: concentration at 4 h of COc1ccc(F)cc1C(=O)NCc1ccc(-c2nn([C@@H](C)C(F)(F)F)c(N)c2C(N)=O)cc1 [BTK-I]
[reply] 5270

----------
- assay-remarks: Phase 1/2 clinical study: pharmacokinetics in cancer patients
- Type: in vivo, human
- run-parameters: human, plasma, oral; 150 mg; 8 hr; read-out: Mean patient plasma CONC (SD)
- Excerpt: The study is an open-label, multi-center study of oral BTK-I to evaluate safety and efficacy as monotherapy and as part of combination therapy in patients with CLL/SLL and NHL who have failed or are intolerant to standard of care. This study includes monotherapy as well as combination treatment parts. The monotherapy part includes Phase 1 dose escalation and dose expansion as well as Phase 2. […]
metric: concentration at 8 h (ng/mL)
Write down the numeric answer in ng/mL and omit the unit.

[ask] # lookup: concentration at 8 h of `COc1ccc(F)cc1C(=O)NCc1ccc(-c2nn([C@@H](C)C(F)(F)F)c(N)c2C(N)=O)cc1`
[reply] 3320

----------
- assay-remarks: Phase 1/2 clinical study: pharmacokinetics in cancer patients
- Format: in vivo, human
- run-parameters: human, plasma, oral, 150 mg, 150 mg QD; steady state (Cycle 1 Day 8); N=20; read-out: AUC0-24 Geo mean (% CV)
metric: AUC(0-t) (ng·h/mL)
Write down the numeric answer in ng·h/mL and omit the unit.

[ask] # lookup: AUC(0-t) of `COc1ccc(F)cc1C(=O)NCc1ccc(-c2nn([C@@H](C)C(F)(F)F)c(N)c2C(N)=O)cc1`
[reply] 64400
